tested on: human pulmonary artery smooth muscle cells (PA-SMCs); assay: 5-HT-induced proliferation of human PA-SMCs ([3H]thymidine incorporation); format: cell-based; conditions: drug at 10^−5 M, added before 5-HT; cells in 0.2% FCS
endpointName: 5-HT-induced increase in [3H]thymidine incorporation (mitogenic response to 5-HT)

compound	result
Cl.Cn1ccc2cc3c(cc21)CCN3C(=O)Nc1cccnc1	not affected
O=C(c1ccc(F)cc1)C1CCN(CCn2c(=O)[nH]c3ccccc3c2=O)CC1	not affected
COc1ccc(NC(=O)c2ccc(-c3ccc(-c4noc(C)n4)cc3C)cc2)cc1N1CCN(C)CC1	not affected

---

Record form. Attribute: Mean systemic arterial pressure. Fill in for each entry.
test system: mice in normoxia; experiment: Physiological parameters during normoxia after treatment; type: in vivo, mice (C57BL6/J); settings: control mice 88±7 mmHg
Answers are plain numbers, in mmHg.

Each molecule below has a recorded value; state its Mean systemic arterial pressure.
1. CNCCC(Oc1ccc(C(F)(F)F)cc1)c1ccccc1 (stereo not shown)
2. CN(C)CCCC1(c2ccc(F)cc2)OCc2cc(C#N)ccc21 (stereo not shown)
3. O=C(c1ccc(F)cc1)C1CCN(CCn2c(=O)[nH]c3ccccc3c2=O)CC1
4. COc1ccc(NC(=O)c2ccc(-c3ccc(-c4noc(C)n4)cc3C)cc2)cc1N1CCN(C)CC1

Response:
1. 86
2. 87
3. 83
4. 85
